Source listed as patent US20260242478A1.

- TARGET_ENTITY: T1, Anti-PSMA Fab (SEQ ID NOs: 19, 20)
- T1 construct: also called 006 PSMA Fab
- ASSAY_REMARKS: phage binding ELISA; biotinylated PSMA Fab on neutravidin plate, clonal phage supernatant, anti-M13 HRP detection;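 further: wells were preincubated with blocking buffer either containing PSMA antigen or without it before crude phage supernatant was added, briefly incubated, then washed prior to detection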
Quick list: Anti-PSMA Fab (SEQ ID NOs: 19, 20) signal per entry.
ASSAY_METRIC: Anti-PSMA Fab (SEQ ID NOs: 19, 20) signal

{"BINDER": "EDILCKPKWMCEGF (peptide, not shown: large carriers, Clonal phage supernatant) [Phage-1801]", "NUMERIC_READOUT": 2.4}
{"BINDER": "EEPLCRPVWMCEGF (peptide, not shown: large carriers, Clonal phage supernatant) [Phage-1799]", "NUMERIC_READOUT": 2.41}
{"BINDER": "LHVYCVPEWMCAGF (peptide, not shown: large carriers, Clonal phage supernatant; also called Peptide-272) [Phage-1802]", "NUMERIC_READOUT": 2.38}
{"BINDER": "AVKACIPEWMCIGF (peptide, not shown: large carriers, Clonal phage supernatant) [Phage-1793]", "NUMERIC_READOUT": 2.44}
{"BINDER": "ESRLCVPAWMCAGF (peptide, not shown: large carriers, Clonal phage supernatant; also called Peptide-270) [Phage-1800]", "NUMERIC_READOUT": 2.41}
